src = patent US9301923B2

assay: Particle size and PDI by dynamic light scattering (Malvern Zetasizer); format: physicochemical; settings: lipid/no neutral lipid/CHOL/GM-020 NOF 60/0/36/4, N/P 3
Please use fulfilled for PDI under 0.08 and not fulfilled for everything else, ties included.

Could you please tell me whether PDI recorded for CCCCC/C=C\C/C=C\CCCCCCCCCCOCC(CN1CCCC1C)OCCO[C@H]1CC[C@@]2(C)C(=CC[C@H]3[C@@H]4CC[C@H]([C@H](C)CCCC(C)C)[C@@]4(C)CC[C@@H]32)C1 (stereo partly drawn) [E0070] is less than 0.08?
fulfilled

###

system: Factor VII; experiment: Factor VII activity assay, in vivo liver delivery of FVII siRNA LNP; parameters: species or system mouse; conditions: dose 3 mg/kg siRNA i.v., ~48 h; lipid/no neutral lipid/CHOL/AVANTI 880150P 50/0/46/4, N/P 3.43
quantity.name: FVII inhib % (%)
Give just the number in %; leave the unit off.

Use the examples below as a reference point.
molecule: CCCCC/C=C\C/C=C\CCCCCCCCOCC(CN(C)C)OCCOCCO[C@H]1CC[C@@]2(C)C(=CC[C@H]3[C@@H]4CC[C@H]([C@H](C)CCCC(C)C)[C@@]4(C)CC[C@@H]32)C1 (stereo partly drawn) [E0172, reference compound]
units.symbol: %
FVII inhib %: 40.8

molecule: CCCCC/C=C\C/C=C\CCCCCCCCOCC(CN1CCC(N2CCOCC2)C1)OCCOCCO[C@H]1CC[C@@]2(C)C(=CC[C@H]3[C@@H]4CC[C@H]([C@H](C)CCCC(C)C)[C@@]4(C)CC[C@@H]32)C1 (stereo partly drawn) [E0038]
units.symbol: %
FVII inhib %: −6.2

molecule: CCCCC/C=C\C/C=C\CCCCCCCCOCC(CN1CC=CC1)OCCOCCO[C@H]1CC[C@@]2(C)C(=CCC3C2CC[C@@]2(C)C3CC[C@@H]2[C@H](C)CCCC(C)C)C1 (stereo partly drawn) [E0032]
units.symbol: %
FVII inhib %: 85.5

molecule: CCCCC/C=C\C/C=C\CCCCCCCCOCC(CN1CCC2(CC1)OCCO2)OCCOCCO[C@H]1CC[C@@]2(C)C(=CCC3C2CC[C@@]2(C)C3CC[C@@H]2[C@H](C)CCCC(C)C)C1 (stereo partly drawn) [E0016]
units.symbol: %
FVII inhib %: 59.9

molecule: CCCCC/C=C\C/C=C\CCCCCCCCOCC(CN1CC[C@H]2OC(C)(C)O[C@H]2C1)OCCOCCO[C@H]1CC[C@@]2(C)C(=CCC3C2CC[C@@]2(C)C3CC[C@@H]2[C@H](C)CCCC(C)C)C1 (stereo partly drawn) [E0009]
units.symbol: %
FVII inhib %: 6.9

Give the measured FVII inhib % for CCCCC/C=C\C/C=C\CCCCCCCCOCC(CN1CCC(O)C1)OCCOCCO[C@H]1CC[C@@]2(C)C(=CC[C@H]3[C@@H]4CC[C@H]([C@H](C)CCCC(C)C)[C@@]4(C)CC[C@@H]32)C1 (stereo partly drawn) [E0045]
90.7

Provide one value: measured FVII inhib % of CCCCC/C=C\C/C=C\CCCCCCCCOCC(CN1CCC(O[Si](C)(C)C(C)(C)C)C1)OCCOCCO[C@H]1CC[C@@]2(C)C(=CC[C@H]3[C@@H]4CC[C@H]([C@H](C)CCCC(C)C)[C@@]4(C)CC[C@@H]32)C1 (stereo partly drawn) [E0042]
84.5

Please look at this molecule and report its FVII inhib %: CCCCC/C=C\C/C=C\CCCCCCCCOCC(CN1CCC(CCOC)CC1)OCCOCCO[C@H]1CC[C@@]2(C)C(=CCC3C2CC[C@@]2(C)C3CC[C@@H]2[C@H](C)CCCC(C)C)C1 (stereo partly drawn) [E0033]
15.3

Dear colleague, please send me the reported FVII inhib % for CCCCC/C=C\C/C=C\CCCCCCCCOCC(CN1CCCC(C)C1)OCCOCCO[C@H]1CC[C@@]2(C)C(=CCC3C2CC[C@@]2(C)C3CC[C@@H]2[C@H](C)CCCC(C)C)C1 (stereo partly drawn) [E0023] when you can.
68
